Assay: cell viability in Huh7 cells, primary screen, cytotoxicity control for HCV replication inhibitor project, CellTiter-Glo luminescence, basal, 48 h (AID 1143);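 note: Huh7 hepatoma cells carrying a hepatitis C replication reporter with no stimulus; test concentration not given here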
Details: Huh7 HCV replicon, higher = more signal, called active from +8 up or from −8 down
Would you please tag the item True when its z-score is -0.8 or above, and False when it is below?

Can CC(CCN1CCCCc2nc(C)c(C)cc21)=NO[C@@H](C)c1cn([C@H](CO)Cc2ccccc2)nn1 be said to have z-score at or above -0.8?
False

How about COc1ccc(COC(=O)NN=C2C[C@@H](O)[C@@H](O)[C@@H]3[C@@H]4C(=O)N(c5cccc(Oc6ccccc6)c5)C(=O)[C@@H]4CC[C@@H]23)cc1 ?
True

====

Target: E3 ubiquitin-protein ligase XIAP (Homo sapiens)
Test: XIAP binders, primary screen, biophysical, small-molecule microarray, fluorescence 635 nm (AID 1181);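 note: score merges 667 nm emission and signal to noise over triplicate slides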
Conditions: small-molecule microarray binding, higher = more signal
Decision: composite z-score >= 0.05 yields TRUE, all other cases yield FALSE.

Observe how each entry below is paired with its result.
* COC(=O)NCC=Cc1nc(CCCO)co1 | FALSE
* CC(CCN1CCCc2nc(C)c(C)cc21)=NO[C@@H](C)c1cc(-c2c(C)cc(C)cc2C)no1 | TRUE
* COC(=O)[C@H](C)NC(=O)CCC1CC(OC(=O)NCc2ccc3c(c2)OCO3)CC2(CCCC(COC(=O)NCc3cccc(C(F)(F)F)c3)O2)O1 (stereo not given in full) | TRUE
* CCOC(=O)[C@H](CC(C)C)NC(=O)CCC1CC(OC(=O)NCc2cccc3ccccc23)CC2(CCCC(COC(=O)NCCc3ccc(Cl)cc3)O2)O1 (stereo not given in full) | FALSE
* O=C(NN=C1C[C@@H](O)[C@@H](O)[C@@H]2[C@@H]3C(=O)N(C4CCCCC4)C(=O)[C@@H]3CC[C@H]12)OCc1ccccc1 | TRUE

Given the entry CC(=O)OC[C@H]1O[C@@H](ON=C(C)CCN2CCCc3nc(C)c(C)cc32)[C@H](OC(C)=O)[C@@H](OC(C)=O)[C@@H]1OC(C)=O , answer whether its composite z-score meets or surpasses 0.05.
FALSE

Would you mind doing O=C(NN=C1C[C@@H](O)[C@@H](O)[C@@H]2[C@@H]3C(=O)N(C[C@@H]4CCCO4)C(=O)[C@@H]3CC[C@@H]12)OCc1ccccc1 as well?
TRUE

Lookup CCOC(=O)[C@H](Cc1ccccc1)NC(=O)CCC1CC(OC(=O)NCCc2ccc(F)cc2)CC2(CCCC(COC(=O)NCCOC)O2)O1 (stereo not given in full)
FALSE

Also CON=C1[C@H]2CCn3c(=O)n(-c4ccccc4)c(=O)n3[C@H]2[C@H](O)[C@@H]2O[C@H]12 ?
FALSE

Do the same for CCOC(=O)[C@H](Cc1ccccc1)NC(=O)CCC1CC(OC(=O)NCc2cccc3ccccc23)CC2(CCCC(COC(=O)NCc3cccc(C(F)(F)F)c3)O2)O1 (stereo not given in full) please
TRUE

Another: COc1ccc(O[C@H]2C=C[C@@H](c3ccccc3)O[C@@H]2COC(=O)CCC(C)=NOC[C@@H](O)[C@H]2O[C@@H]3OC(C)(C)O[C@@H]3[C@H]2O)cc1
FALSE

Please answer likewise for CCOC(=O)[C@H](CC(C)C)NC(=O)CCC1CC(OC(=O)NCc2ccc3c(c2)OCO3)CC2(CCCC(COC(=O)NCCCN3CCCC3=O)O2)O1 (stereo not given in full)
FALSE

Again, but for COC(=O)[C@@H]1CC[C@H](C)[C@@H](c2ccc(C)cc2)N1C(=O)c1ccc(C=NO[C@H](C)c2cn([C@H](CO)Cc3ccccc3)nn2)cc1
FALSE

Now the compound Cc1cc2c(nc1C)CCCN2CC(O)CN1CCCc2nc(C)c(C)cc21
TRUE

====

Assay: E. coli acrAB mutant growth effects, primary screen, E. coli filamentation inducers, strain DRC39, OD650, 24 h (AID 1178);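 note: growth measured as culture turbidity by optical density at 650 nm; test concentration not given here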
Conditions: higher = more signal, called active from +8 up or from −8 down
Entries and their z-score values follow.
Lab note: record the figure alone, no unit after it.

- CO[C@H]1COC(=O)CC=C[C@H](C)[C@@H](OC)COC(=O)[C@@H](C)NC(=O)CC=C[C@@H]1C: 0.0013
- O=C1CCCC(C2=CCCCC2=O)C1 (configuration not stated): 0.998
- CCOC(=O)CCN1C(=O)[C@H]2[C@H]3[C@H](O)[C@H](O)CC(=NNC(=O)OCc4ccccc4)[C@@H]3CC[C@H]2C1=O: 0.655

Query (compound): COc1cccc([C@H]2Oc3ccc(OC)cc3C(=NOC[C@@H](C)[C@H](OCc3ccccc3)C(C)C)[C@@H]2O)c1 ; field requested: z-score
0.221

Please do the same for O=C1OCCC=C1C(O)CCc1ccccc1 (configuration not stated) as well.
0.258

What about this compound? CC(C)(C)N1C(=O)[C@H]2[C@H]3[C@H](O)[C@H](O)CC(=O)[C@H]3CC[C@H]2C1=O
-0.403

Also O=C1C[C@@H](O)[C@@H](O)[C@@H]2[C@@H]3C(=O)N(Cc4ccc5c(c4)OCO5)C(=O)[C@@H]3CC[C@H]12 , if possible.
-0.494

Lookup C=Cc1ccc([C@H]2N[C@H](C(=O)O)CC[C@@H]2C)cc1
0.505

What about C[C@H]1CC[C@H]2C(=O)OC(CO)CN2[C@@H]1c1ccc(Br)cc1 (some centres not stated) ?
-0.472

// query: COc1ccc(COC(=O)NN=C2C[C@@H](O)[C@@H](O)[C@@H]3[C@@H]4C(=O)N(Cc5ccccc5)C(=O)[C@@H]4CC[C@H]23)cc1
0.426

What about this compound? C[C@@H]1CC[C@H]2C(=O)O[C@@H](COc3ccc(C(C)(C)C)cc3)CN2[C@@H]1c1ccc(Br)cc1
0.095

Likewise for O=C1[C@H]2[C@H]3[C@H](O)[C@H](O)CC(=NOC[C@@H](O)COCc4ccco4)[C@H]3CC[C@H]2C(=O)N1Cc1ccccc1 ?
-0.194

====

Biological target: Neurogenic locus notch homolog protein 2 (Homo sapiens) (UniProt Q04721)
Sequence (Q04721 whole entry, looked up): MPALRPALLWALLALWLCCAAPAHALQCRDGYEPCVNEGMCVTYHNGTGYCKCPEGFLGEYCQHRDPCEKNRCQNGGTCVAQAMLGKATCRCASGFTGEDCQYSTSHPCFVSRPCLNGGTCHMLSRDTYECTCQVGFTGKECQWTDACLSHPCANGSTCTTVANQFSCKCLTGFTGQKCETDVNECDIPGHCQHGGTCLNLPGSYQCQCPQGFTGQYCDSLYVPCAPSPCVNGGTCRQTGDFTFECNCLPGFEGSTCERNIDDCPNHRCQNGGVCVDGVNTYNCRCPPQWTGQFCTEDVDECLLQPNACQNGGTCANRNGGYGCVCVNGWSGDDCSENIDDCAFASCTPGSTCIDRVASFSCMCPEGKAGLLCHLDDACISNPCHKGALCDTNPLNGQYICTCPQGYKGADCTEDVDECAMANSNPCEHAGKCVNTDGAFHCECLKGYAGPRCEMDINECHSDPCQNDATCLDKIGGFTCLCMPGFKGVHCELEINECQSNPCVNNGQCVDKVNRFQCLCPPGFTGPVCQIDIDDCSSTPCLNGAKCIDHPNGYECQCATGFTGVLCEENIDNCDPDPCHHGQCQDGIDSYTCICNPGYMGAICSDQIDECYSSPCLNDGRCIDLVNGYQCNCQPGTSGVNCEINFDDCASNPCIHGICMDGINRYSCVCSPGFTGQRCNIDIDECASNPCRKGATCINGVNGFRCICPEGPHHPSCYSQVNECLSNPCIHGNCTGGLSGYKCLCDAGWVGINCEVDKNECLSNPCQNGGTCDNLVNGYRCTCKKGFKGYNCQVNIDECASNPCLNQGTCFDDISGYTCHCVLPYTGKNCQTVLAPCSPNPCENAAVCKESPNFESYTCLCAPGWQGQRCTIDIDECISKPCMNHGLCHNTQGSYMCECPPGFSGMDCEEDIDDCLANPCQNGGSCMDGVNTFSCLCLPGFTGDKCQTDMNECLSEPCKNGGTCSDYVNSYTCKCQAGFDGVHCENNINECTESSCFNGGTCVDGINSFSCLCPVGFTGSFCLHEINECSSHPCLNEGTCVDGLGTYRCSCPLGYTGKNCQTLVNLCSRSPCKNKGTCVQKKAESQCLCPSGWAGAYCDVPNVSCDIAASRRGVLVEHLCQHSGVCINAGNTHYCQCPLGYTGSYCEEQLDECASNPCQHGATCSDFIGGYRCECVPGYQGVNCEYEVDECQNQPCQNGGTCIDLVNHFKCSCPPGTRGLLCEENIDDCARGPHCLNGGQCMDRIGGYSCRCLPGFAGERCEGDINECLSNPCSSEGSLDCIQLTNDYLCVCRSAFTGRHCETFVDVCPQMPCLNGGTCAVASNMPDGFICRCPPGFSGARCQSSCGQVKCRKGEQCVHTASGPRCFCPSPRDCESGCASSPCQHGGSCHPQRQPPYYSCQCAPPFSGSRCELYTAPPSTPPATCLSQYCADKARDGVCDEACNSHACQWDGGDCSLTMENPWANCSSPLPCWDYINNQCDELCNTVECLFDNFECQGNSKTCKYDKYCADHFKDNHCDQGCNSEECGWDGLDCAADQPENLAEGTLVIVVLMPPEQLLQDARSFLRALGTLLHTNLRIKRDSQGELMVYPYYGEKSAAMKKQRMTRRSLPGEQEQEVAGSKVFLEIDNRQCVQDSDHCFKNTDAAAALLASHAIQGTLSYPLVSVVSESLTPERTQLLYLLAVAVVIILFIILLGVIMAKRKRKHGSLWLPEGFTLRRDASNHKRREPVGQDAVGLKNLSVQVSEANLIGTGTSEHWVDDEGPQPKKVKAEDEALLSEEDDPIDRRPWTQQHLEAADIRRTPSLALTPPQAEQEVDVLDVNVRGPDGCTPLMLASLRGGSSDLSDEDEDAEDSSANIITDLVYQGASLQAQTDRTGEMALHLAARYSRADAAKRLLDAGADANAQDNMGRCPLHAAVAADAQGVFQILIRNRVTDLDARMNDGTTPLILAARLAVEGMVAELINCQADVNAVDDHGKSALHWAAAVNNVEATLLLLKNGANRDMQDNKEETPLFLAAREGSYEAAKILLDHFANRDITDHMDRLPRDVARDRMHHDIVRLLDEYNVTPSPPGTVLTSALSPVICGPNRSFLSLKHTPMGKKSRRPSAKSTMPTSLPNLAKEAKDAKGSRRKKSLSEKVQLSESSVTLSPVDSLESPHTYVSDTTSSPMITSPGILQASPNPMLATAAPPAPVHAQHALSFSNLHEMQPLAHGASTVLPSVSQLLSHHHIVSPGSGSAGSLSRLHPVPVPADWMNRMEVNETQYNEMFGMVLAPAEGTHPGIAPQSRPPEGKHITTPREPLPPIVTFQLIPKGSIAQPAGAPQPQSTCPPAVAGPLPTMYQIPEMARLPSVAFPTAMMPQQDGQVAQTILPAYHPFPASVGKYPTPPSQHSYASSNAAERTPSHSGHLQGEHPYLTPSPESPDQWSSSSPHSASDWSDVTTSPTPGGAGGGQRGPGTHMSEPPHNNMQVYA
Experiment: Notch2 binders on small-molecule microarrays, primary screen, biochemical, small-molecule microarray, 635 nm fluorescence, stem cell growth factors (AID 1073)
Details: Notch2 binding, higher = more signal
Assign class by composite z-score: not lower than 0.02 means rule met; lower than 0.02 means rule not met.

Recorded results for 8 compounds are shown here.
- CO[C@@H]1C=CCC(=O)N[C@@H](C)C(=O)OC[C@@H](OC)[C@H](C)CCCC(=O)OC[C@H]1C: rule met
- COc1ccc(C#C[C@@H]2C=C[C@H](OC(C)=O)[C@@H](COC(C)=O)O2)cc1: rule met
- CO[C@H]1COC(=O)CC=C[C@H](C)[C@@H](OC)COC(=O)[C@@H](C)NC(=O)CC=C[C@@H]1C: rule not met
- CON=Cc1ccc(C(=O)N2[C@H](c3ccc(C)cc3)[C@@H](C)CC[C@H]2C(=O)OC)cc1: rule met
- CC(C)=CCCC(C)=CCON=C1C[C@@H](O)[C@@H](O)[C@@H]2[C@@H]3C(=O)N(C(C)(C)C)C(=O)[C@@H]3CC[C@@H]12: rule met
- O=C1OCCC=C1C(O)CCc1ccccc1 (stereo unspecified): rule met
- CO[C@H](C1CCCCC1)[C@H](C)C=CCC(=O)OCCCc1ccccc1: rule not met
- CO[C@@H]1COC(=O)[C@@H](C)NC(=O)CC=C[C@@H](C)[C@H](NS(=O)(=O)c2ccc(C)cc2)COC(=O)[C@H](C)NC(=O)CC=C[C@H]1C: rule not met

In plain terms: is recorded composite z-score at least 0.02 for Cc1ccc(S(=O)(=O)n2c3ccccc3c3nnc(C(=O)c4ccccc4)nc32)cc1 ?
rule met

Entry to check: COC(=O)[C@@H]1CC[C@H](C)[C@@H](c2ccc(C)cc2)N1C(=O)c1ccc(C=NO[C@H](C)c2cn([C@H](CO)Cc3ccccc3)nn2)cc1
rule met

Next: C[C@@H]1C=CCC(=O)OC[C@H]2O[C@@H](C=C[C@@H]2O)[C@H](C)C=CCC(=O)OC1
rule not met

====

Tested on: Neuregulin-1 EGF-like domain
Test: binders of neuregulin-1 EGF-like domain, primary screen, biochemical, small-molecule microarray, 635 nm fluorescence (AID 1081);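 note: binding of the protein to compounds printed on small-molecule microarray slides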
Details: small-molecule microarray binding, higher = more signal
Would you please tag the item Satisfied when its composite z-score is 0.5 or above, and Not satisfied when it is below?

Hi team, for CC(C)CON=C1C[C@@H](O)[C@@H](O)[C@@H]2[C@@H]3C(=O)N(Cc4ccc5c(c4)OCO5)C(=O)[C@@H]3CC[C@H]12 , is the recorded composite z-score at or above 0.5?
Satisfied

Then this compound: C#CCCCON=C1C[C@@H](O)[C@@H](O)[C@@H]2[C@@H]3C(=O)N(c4ccc(F)cc4F)C(=O)[C@@H]3CC[C@H]12
Satisfied

Check Cc1cc2c(c(=O)o1)[C@@H](O)[C@H]1O[C@H]1C2=O too.
Not satisfied
